- ASSAYED_TARGET: HDAC8 (Homo sapiens (Human), UniProt Q9BY41)
- Sequence (Q9BY41 whole entry): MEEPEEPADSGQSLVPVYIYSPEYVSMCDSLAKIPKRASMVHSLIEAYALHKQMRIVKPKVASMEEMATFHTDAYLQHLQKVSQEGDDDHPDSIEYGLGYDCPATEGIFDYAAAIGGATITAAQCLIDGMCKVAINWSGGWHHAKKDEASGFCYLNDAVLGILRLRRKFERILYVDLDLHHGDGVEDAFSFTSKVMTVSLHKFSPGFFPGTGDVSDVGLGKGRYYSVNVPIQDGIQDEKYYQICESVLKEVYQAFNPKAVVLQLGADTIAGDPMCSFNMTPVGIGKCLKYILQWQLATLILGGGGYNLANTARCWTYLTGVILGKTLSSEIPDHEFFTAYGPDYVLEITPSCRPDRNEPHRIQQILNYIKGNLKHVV
- EXPERIMENTAL_DETAILS: HDAC in vitro enzymatic assay (fluorescence)
- SETUP_CONDITIONS: read-out: IC50 HDAC8; full HDAC panel; top concentration 10 μM
pIC50: −log10 of the molar value.
READOUT_LABEL: pIC50

Recorded pIC50 for O=C(NO)c1ccc2nc(-c3ccccc3C(F)(F)F)[nH]c2c1 [Example 18] , please? < 5.00

Recorded pIC50 for Cc1cc(O)cc(C)c1-c1nc2ccc(C(=O)NO)cc2[nH]1 [Example 15] , please? < 5.00
